Data origin: patent US9376436B2

- Tested Target: hNaV1.7 (Homo sapiens, UniProt Q15858)
- Construct: expressed in transfected cells; host or cells: HEK293
- Sequence (Q15858 whole entry): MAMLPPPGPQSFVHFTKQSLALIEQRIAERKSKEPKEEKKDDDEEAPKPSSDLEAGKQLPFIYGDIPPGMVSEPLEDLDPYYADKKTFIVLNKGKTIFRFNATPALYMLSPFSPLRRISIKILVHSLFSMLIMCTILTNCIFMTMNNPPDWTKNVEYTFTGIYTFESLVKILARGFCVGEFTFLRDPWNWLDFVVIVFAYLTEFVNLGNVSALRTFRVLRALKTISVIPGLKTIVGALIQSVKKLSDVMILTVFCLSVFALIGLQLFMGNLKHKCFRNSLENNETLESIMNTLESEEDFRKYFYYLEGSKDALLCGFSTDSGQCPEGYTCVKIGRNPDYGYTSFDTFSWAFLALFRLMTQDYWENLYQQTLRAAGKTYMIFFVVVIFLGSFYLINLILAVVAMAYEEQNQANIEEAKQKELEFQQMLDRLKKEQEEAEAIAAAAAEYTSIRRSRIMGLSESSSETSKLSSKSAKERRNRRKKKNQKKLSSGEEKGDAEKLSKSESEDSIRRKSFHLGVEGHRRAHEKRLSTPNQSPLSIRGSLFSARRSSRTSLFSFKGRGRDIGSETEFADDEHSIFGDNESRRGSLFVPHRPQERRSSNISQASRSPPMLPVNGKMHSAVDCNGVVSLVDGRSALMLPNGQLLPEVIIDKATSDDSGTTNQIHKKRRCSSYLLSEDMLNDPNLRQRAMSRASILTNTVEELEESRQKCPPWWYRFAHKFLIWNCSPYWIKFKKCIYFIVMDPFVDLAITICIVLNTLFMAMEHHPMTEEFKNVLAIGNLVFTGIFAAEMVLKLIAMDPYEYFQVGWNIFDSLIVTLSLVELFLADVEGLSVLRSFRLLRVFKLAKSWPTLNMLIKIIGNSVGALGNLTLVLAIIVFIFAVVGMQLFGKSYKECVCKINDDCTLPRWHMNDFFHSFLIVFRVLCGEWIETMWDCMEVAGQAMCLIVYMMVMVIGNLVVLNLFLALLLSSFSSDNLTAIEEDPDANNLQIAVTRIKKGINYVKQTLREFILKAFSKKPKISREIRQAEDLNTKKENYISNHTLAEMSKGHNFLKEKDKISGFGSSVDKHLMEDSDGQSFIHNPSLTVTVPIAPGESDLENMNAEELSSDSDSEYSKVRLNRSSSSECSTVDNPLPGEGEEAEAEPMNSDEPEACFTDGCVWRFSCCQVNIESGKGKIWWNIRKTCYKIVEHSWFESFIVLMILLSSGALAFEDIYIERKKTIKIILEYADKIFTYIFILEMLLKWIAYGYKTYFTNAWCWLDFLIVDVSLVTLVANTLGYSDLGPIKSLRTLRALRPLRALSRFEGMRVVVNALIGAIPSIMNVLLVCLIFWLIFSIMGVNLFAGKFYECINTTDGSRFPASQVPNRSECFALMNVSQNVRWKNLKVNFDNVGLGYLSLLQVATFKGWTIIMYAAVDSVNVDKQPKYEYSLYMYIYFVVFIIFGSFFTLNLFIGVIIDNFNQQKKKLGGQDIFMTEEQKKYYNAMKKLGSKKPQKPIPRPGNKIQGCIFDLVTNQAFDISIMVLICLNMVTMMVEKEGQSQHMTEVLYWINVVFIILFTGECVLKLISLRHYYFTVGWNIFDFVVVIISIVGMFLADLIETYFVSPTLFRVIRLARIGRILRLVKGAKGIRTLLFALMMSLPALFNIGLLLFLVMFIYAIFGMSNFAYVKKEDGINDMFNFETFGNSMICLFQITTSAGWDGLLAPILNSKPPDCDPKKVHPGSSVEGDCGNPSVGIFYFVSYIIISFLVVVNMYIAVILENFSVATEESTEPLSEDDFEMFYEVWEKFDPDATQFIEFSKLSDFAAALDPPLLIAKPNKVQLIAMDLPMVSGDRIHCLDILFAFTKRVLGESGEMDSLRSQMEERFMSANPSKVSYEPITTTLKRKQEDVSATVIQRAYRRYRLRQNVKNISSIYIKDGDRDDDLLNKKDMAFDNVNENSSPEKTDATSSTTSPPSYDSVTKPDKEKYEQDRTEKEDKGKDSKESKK
- Assay Notes: QPatch NaV1.7 assay (whole-cell patch clamp, QPatch16x)
- Type: cell-based
- Details: holding voltage −90 mV (most channels closed), HEK293-hNaV1.7 cells, read-out: QP Nav1.7 −90 mV pIC50 (converted)
Where a name gives a salt, the structure may show the parent alone.
Parameter: IC50 (µM)

Known IC50 results, listed for orientation:
CN1CC[C@@]2(CC[C@H](c3cc(-c4cccc(-n5cccn5)c4)ccn3)N2)C1=O [Example 173, hydrochloride]    200
CCc1ccc(F)c(-c2cc(C)nc([C@H]3CC[C@@]4(CCN(C)C4=O)N3)c2)c1 [Example 204, hydrochloride]    31.6

[P] CN1CC[C@]2(CC[C@@H](c3cc(-c4ccccc4F)ccn3)N2)C1=O [Example 34, hydrochloride]
[Q] CC(C)COc1cc(-c2ccnc([C@H]3CC[C@@]4(CCN(C)C4=O)N3)c2)ccc1F [Example 194, hydrochloride]
Problem: Rank P against Q by their IC50 values and give the higher one. State the label of the item chosen.
Solution: P
(P: 251 µM, Q: 15.8 µM)

---

- Tested Target: hNaV1.7 (Homo sapiens)
- Construct: expressed in transfected cells; host or cells: HEK293
- Assay Notes: QPatch NaV1.7 assay (whole-cell patch clamp, QPatch16x)
- Type: cell-based
- Details: holding voltage V1/2 SSI (half of channels inactivated), HEK293-hNaV1.7 cells, read-out: QP Nav1.7 SSI vhalf pIC50 (converted)
Counter-ions that a name gives are not always drawn.
Parameter: IC50 (µM)

Known IC50 results, listed for orientation:
CCOc1ccc(F)c(-c2cc(OC)nc([C@@H]3CC[C@]4(CCN(C)C4=O)N3)c2)c1 (single isomer, unassigned) [Example 248]    5.01
CCOc1ccc(C)c(-c2ccnc([C@H]3CC[C@@]4(CCN(C)C4=O)N3)c2)c1 [Example 178, hydrochloride]    25.1
COc1cc(C(F)(F)F)ccc1-c1cc([C@@H]2CC[C@]3(CCN(C)C3=O)N2)ncc1C [Example 129, hydrochloride]    20
CCOc1ccc(F)c(-c2cc([C@H]3CC[C@]4(CCN(C)C4=O)N3)nc(C)c2C)c1 [Example 141, hydrochloride]    6.31
CCOCc1ccc(F)c(-c2ccnc([C@H]3CC[C@@]4(CCN(C)C4=O)N3)c2)c1 [Example 189, hydrochloride]    25.1

[A] CC1(C)C[C@]2(CC[C@@H](c3cc(-c4ccc(C(F)(F)F)cc4)ccn3)N2)C(=O)N1 [Example 47, hydrochloride]
[B] CN1CC[C@@]2(CC[C@H](c3cc(-c4ccccc4F)ccn3)N2)C1=O [Example 32, hydrochloride]
Problem: When the recorded IC50 values are compared, which is smaller: that of A or that of B ? State the label of the item chosen.
Solution: A
(A: 12.6 µM, B: 39.8 µM)

---

- Tested Target: hNaV1.7 (Homo sapiens, UniProt Q15858)
- Construct: expressed in transfected cells; host or cells: HEK293
- Assay Notes: QPatch NaV1.7 assay (whole-cell patch clamp, QPatch16x)
- Assay type: cell-based
- Details: holding voltage V1/2 SSI (half of channels inactivated), HEK293-hNaV1.7 cells, read-out: QP Nav1.7 SSI vhalf pIC50 (converted)
Structures can show the parent of a compound that is named as a salt.
Parameter: IC50 (µM)

Known IC50 results, listed for orientation:
CN1CC[C@]2(CC[C@H](c3cc(-c4ccc(C(F)(F)F)cc4)c(OC(C)(C)C)cn3)N2)C1=O [Example 65, hydrochloride]    1.58
CN1CCC[C@]2(CC[C@H](c3cc(-c4ccc(F)cc4)ccn3)N2)C1=O [Example 74, hydrochloride]    7.94
CN1CC[C@@]2(CC[C@H](c3cc(-c4cc(N5CCCC5=O)ccc4F)ccn3)N2)C1=O [Example 160, hydrochloride]    1580
Cc1cc(-c2cc(OC(F)(F)F)ccc2F)cc([C@H]2CC[C@@]3(CCN(C)C3=O)N2)n1 [Example 200, hydrochloride]    2
O=C1NCCC[C@@]12CC[C@H](c1cc(-c3ccc(C(F)(F)F)cc3)ccn1)N2 [Example 49, hydrochloride]    3.98
Cc1cc(-c2ccc(C(F)(F)F)cc2)cc([C@H]2CC[C@@]3(CCN(C)C3=O)N2)n1 [Example 28, hydrochloride]    5.01
Cc1cc(-c2ccc(C(F)(F)F)cc2)cc([C@@H]2CC[C@@]3(CCNC3=O)N2)n1 [Example 97, hydrochloride]    1.26
CN1CC[C@@]2(CC[C@H](c3cc(-c4cc(OC5CC5)ccc4F)ccn3)N2)C1=O [Example 185, hydrochloride]    7.94

[P] CCOc1ccc(F)c(-c2ccnc([C@H]3CC[C@@]4(CC[C@H](C)NC4=O)N3)c2)c1 [Example 246, hydrochloride]
[Q] Cl.[2H]C([2H])(C)Oc1ccc(F)c(-c2ccnc([C@H]3CC[C@@]4(CCN(C)C4=O)N3)c2)c1
[R] CN1CC[C@@]2(CC[C@@H](c3cc(-c4ccccc4F)ccn3)N2)C1=O [Example 33, hydrochloride]
[S] Cc1cnn(-c2ccc(F)c(-c3ccnc([C@H]4CC[C@@]5(CCN(C)C5=O)N4)c3)c2)c1 [Example 183, hydrochloride]
[T] CCOc1ccc(F)c(-c2cc(C)nc([C@H]3CC[C@]4(CCN(C)C4=O)N3)c2)c1 [Example 121, hydrochloride]
Problem: Reorder: IC50, max to min. Form entry: labels listed in requested order.
Solution: R, Q, S, P, T
(R: 39.8 µM, Q: 6.31 µM, S: 3.16 µM, P: 1 µM, T: 0.631 µM)

---

- Tested Target: hNaV1.7 (Homo sapiens)
- Construct: expressed in transfected cells; host or cells: HEK293
- Assay Notes: QPatch NaV1.7 assay (whole-cell patch clamp, QPatch16x)
- Assay type: cell-based
- Details: holding voltage V1/2 SSI (half of channels inactivated), HEK293-hNaV1.7 cells, read-out: QP Nav1.7 SSI vhalf pIC50 (converted)
Structures can show the parent of a compound that is named as a salt.
Parameter: IC50 (µM)

Known IC50 results, listed for orientation:
O=C1NCC[C@@]12CC[C@H](c1cc(-c3ccc(C(F)(F)F)cc3F)ccn1)N2 [Example 39, hydrochloride]    20
CN1CC[C@@]2(CC[C@@H](c3cc(-c4ccc(C(F)(F)F)cc4)ccn3)N2)C1=O [Example 53, hydrochloride]    39.8
Cc1ccnn1-c1ccc(F)c(-c2ccnc([C@H]3CC[C@@]4(CCN(C)C4=O)N3)c2)c1 [Example 193, hydrochloride]    50.1
CC(C)COc1cc(-c2ccnc([C@H]3CC[C@@]4(CCN(C)C4=O)N3)c2)ccc1F [Example 194, hydrochloride]    1
CCOc1cc(-c2ccnc([C@H]3CC[C@@]4(CCN(C)C4=O)N3)c2)c(F)cc1F [Example 149, hydrochloride]    25.1

[P] Cc1cc(C)c(-c2ccnc([C@H]3CC[C@@]4(CCN(C)C4=O)N3)c2)c(C)c1 [Example 2, hydrochloride]
[Q] Cc1cc(-c2ccc(C(F)(F)F)cc2)cc([C@H]2CC[C@@]3(CCCNC3=O)N2)n1 [Example 99, hydrochloride]
[R] CCOc1cc(-c2cc(C)nc([C@H]3CC[C@]4(CCN(C)C4=O)N3)c2)ccc1F [Example 124, hydrochloride]
Problem: Reorder: IC50, max to min. Form entry: labels listed in requested order.
Solution: P, R, Q
(P: 20 µM, R: 7.94 µM, Q: 1 µM)

[A] Cc1cc(C)cc(-c2ccnc([C@H]3CC[C@@]4(CCN(C)C4=O)N3)c2)c1 [Example 174, hydrochloride]
[B] CN1CC[C@@]2(CC[C@H](c3cc(-c4ccc(C5(C#N)CC5)cc4)ccn3)N2)C1=O [Example 171, hydrochloride]
Problem: Rank A against B by their IC50 values and give the higher one. State the label of the item chosen.
Solution: B
(B: 50.1 µM, A: 25.1 µM)

[A] CCn1ncc2cc(F)c(-c3ccnc([C@H]4CC[C@@]5(CCN(C)C5=O)N4)c3)cc21 [Example 258, hydrochloride]
[B] CN1CC[C@@]2(CC[C@H](c3cc(-c4cccc5c4OC(F)(F)O5)ccn3)N2)C1=O [Example 81, hydrochloride]
Problem: Rank A against B by their IC50 values and give the higher one. State the label of the item chosen.
Solution: A
(A: 31.6 µM, B: 3.16 µM)

[1] CCOc1ccc(F)c(-c2cc(C)nc([C@H]3CC[C@@]4(CCNC4=O)N3)c2)c1 [Example 104, hydrochloride]
[2] CN1CC[C@@]2(CC[C@@H](c3cc(-c4ccc(C(F)(F)F)cc4)c(OC(C)(C)C)cn3)N2)C1=O [Example 63, hydrochloride]
Problem: Rank 1 against 2 by their IC50 values and give the higher one. State the label of the item chosen.
Solution: 2
(2: 10 µM, 1: 0.158 µM)
